The reported measurements were obtained from PubChem BioAssay AID489023.

Tested on: 697B cells, BCR-induced NF-kB luciferase reporter luminescence
EXPERIMENT_NOTES: inhibitors of BCR-induced NF-kB activation, dose response, 697B cells, luciferase luminescence (AID 489023)
Activity calls are given as the source filed them. No rule for the calls is given here.
Outcomes: t = active, f = inactive

# COMPOUND, SYSTEM_NAME, GROUP
records = [
    ("Cc1[nH]c2ccccc2c1/C=N/Nc1nc(Nc2ccccc2)nc(N2CCOCC2)n1", "697B cells, BCR-induced NF-kB luciferase reporter luminescence", "t"),
    ("CCOc1ccc(/C=C2\\SC(=S)N(CCC(=O)Nc3ccc(C(=O)O)cc3)C2=O)cc1", "697B cells, BCR-induced NF-kB luciferase reporter luminescence", "t"),
    ("Cc1c(CCC(=O)NCCCn2ccnc2)c(=O)oc2c(C)c3oc4c(c3cc12)CCCC4", "697B cells, BCR-induced NF-kB luciferase reporter luminescence", "f"),
    ("COc1cc(-c2nc3n(n2)C(c2ccc(F)cc2)C2=C(CCCC2=O)N3)cc(OC)c1OC (stereo unspecified)", "697B cells, BCR-induced NF-kB luciferase reporter luminescence", "f"),
    ("COc1ccc(-c2nc(CSCC(=O)NCc3ccco3)c(C)o2)cc1", "697B cells, BCR-induced NF-kB luciferase reporter luminescence", "t"),
    ("O=C(Oc1cccc(/C=N/Nc2nc(N3CCOCC3)nc(N3CCOCC3)n2)c1)c1ccco1", "697B cells, BCR-induced NF-kB luciferase reporter luminescence", "t"),
    ("C=CCOC(=O)COc1cc(C)cc2oc(=O)c3c(c12)CCC3", "697B cells, BCR-induced NF-kB luciferase reporter luminescence", "f"),
    ("Cc1ccc(-c2nsc3c(N4CCC(C(N)=O)CC4)ncnc23)cc1", "697B cells, BCR-induced NF-kB luciferase reporter luminescence", "t"),
    ("CC(C)c1[nH]nc2c1C(c1ccco1)C(C#N)=C(N)O2 (stereo unspecified)", "697B cells, BCR-induced NF-kB luciferase reporter luminescence", "f"),
    ("CC1=CC(C)(C)Nc2ccc(OC(=O)CN3C(=O)c4ccccc4C3=O)cc21", "697B cells, BCR-induced NF-kB luciferase reporter luminescence", "t"),
    ("COC(=O)C1=C(c2ccc(-c3ccccc3)c(F)c2)C[C@@H]2CC[C@H]1N2C(=O)N1CCCC1", "697B cells, BCR-induced NF-kB luciferase reporter luminescence", "f"),
    ("CN1C(=O)CC(c2ccco2)Sc2ccccc21 (stereo unspecified)", "697B cells, BCR-induced NF-kB luciferase reporter luminescence", "f"),
    ("COc1ccc(-n2ncc3c(N4CCC(C(N)=O)CC4)ncnc32)cc1", "697B cells, BCR-induced NF-kB luciferase reporter luminescence", "f"),
    ("COc1ccc(OC)c(NC(=O)c2[nH]c(C)c(C(C)=O)c2C)c1", "697B cells, BCR-induced NF-kB luciferase reporter luminescence", "f"),
    ("COC(=O)c1cc(NC(=O)Nc2cc(OC)ccc2OC)cc(C(=O)OC)c1", "697B cells, BCR-induced NF-kB luciferase reporter luminescence", "f"),
    ("CCOc1ccc(-c2c[n+]3c(n2-c2ccccc2)CCCCC3)cc1", "697B cells, BCR-induced NF-kB luciferase reporter luminescence", "f"),
    ("Cc1cc(C)c2nc(NC(=O)C3CSC4(C)CCC(=O)N34)sc2c1 (stereo unspecified)", "697B cells, BCR-induced NF-kB luciferase reporter luminescence", "f"),
    ("CCc1sc(C(=O)Nc2cccc(-n3cnnn3)c2)cc1C", "697B cells, BCR-induced NF-kB luciferase reporter luminescence", "f"),
    ("Cc1cc(C)cc(N2C(=O)NC(=O)/C(=C\\c3cccn3-c3ccccc3)C2=O)c1", "697B cells, BCR-induced NF-kB luciferase reporter luminescence", "f"),
    ("COc1ccc(-c2ccc(OC)c([C@H]3[C@H]4C=CC[C@@H](C)[C@@H]4C(=O)N3Cc3ccccc3)c2)cc1C", "697B cells, BCR-induced NF-kB luciferase reporter luminescence", "f"),
    ("CC1CC(C)(C)Nc2ccc(OC(=O)c3ccco3)cc21 (stereo unspecified)", "697B cells, BCR-induced NF-kB luciferase reporter luminescence", "t"),
]

---

System: 697B cells, BCR-induced NF-kB luciferase reporter luminescence
EXPERIMENT_NOTES: inhibitors of BCR-induced NF-kB activation, dose response, 697B cells, luciferase luminescence (AID 489023)
Calls of active or inactive are those of the source. No rule for the calls is given here.
Possible outcomes: label 1 for active, label 0 for inactive

# COMPOUND, GROUP
measured = [
    ("COc1ccc(-c2ccc(C)cc2)cc1[C@H]1[C@H]2C=CC[C@@H](C)[C@@H]2C(=O)N1Cc1ccccc1", "label 0"),
    ("COc1ccc(C(C(=O)NC2CCCCC2)N(C(=O)CCl)c2ccc(OC)cc2)cc1 (stereo unspecified)", "label 1"),
    ("CCn1c(=O)cc(SCC(=O)N2CCCCC2)c2ccccc21", "label 0"),
    ("CCc1ccc(/C=C2/SC(=S)N(CCC(=O)Nc3cccc(C(=O)O)c3)C2=O)cc1", "label 0"),
    ("O=C(O)CCSc1nc2ccccc2s1", "label 1"),
    ("Cc1cc(NC(=O)CCCN2C(=O)/C(=C/c3ccccc3Cl)SC2=S)no1", "label 1"),
    ("CCOC(=O)Cc1csc(NC(=S)NC(=O)c2ccc(Cl)cc2)n1", "label 0"),
    ("CCOC(=O)/C=C(\\C)Sc1cc(=O)oc2ccccc12", "label 1"),
    ("CC(C)(C)C(=O)/C(=C/c1ccncc1)n1cncn1", "label 1"),
    ("CC1CCN(C(=O)CCCOc2cc(=O)n(C)c3ccccc23)CC1", "label 0"),
    ("COc1ccc(/C=C2\\SC(=S)N(CCCC(=O)Nc3ccc(O)cc3)C2=O)cc1", "label 1"),
]

---

Tested on: 697B cells, BCR-induced NF-kB luciferase reporter luminescence
EXPERIMENT_NOTES: inhibitors of BCR-induced NF-kB activation, dose response, 697B cells, luciferase luminescence (AID 489023)
Active and inactive are the calls of the source. How the calls were made is not given here.
Classes used: active, inactive

# COMPOUND, GROUP
records = [
    ("CC(C)CCNC(=O)CCCOc1cc(=O)n(C)c2ccccc12", "inactive"),
    ("Cc1ccc(/C=C2\\SC(=S)N(CCCC(=O)Nc3ccc(O)cc3)C2=O)cc1", "active"),
    ("CC(C)(C)c1ccc(-n2ncc3c2CCCC3NC(=O)C2(C(N)=O)CC2)cc1 (configuration not stated)", "inactive"),
    ("CCN1C(=O)Nc2cccc3cccc1c23", "inactive"),
    ("Cn1c(=O)cc(Nc2ccccc2)c2c(=O)n(-c3ccccc3)c(=O)n(-c3ccccc3)c21", "active"),
    ("COc1cc(C2C(C#N)=C(N)Oc3cc(N)ccc32)cc(OC)c1OC (configuration not stated)", "inactive"),
    ("Cc1cc(OC(=O)c2ccccc2Cl)cc(=O)n1C", "inactive"),
    ("Cc1ccc(C(=O)CSc2nnc(COc3cccc(C)c3)o2)cc1", "inactive"),
    ("CCN(CC)C(=O)c1ccc(S(=O)(=O)Cc2ccc(C)cc2)c([N+](=O)[O-])c1", "active"),
    ("C=CCn1c(O)c(C(C)=NC(C)c2ccccc2)c(=O)[nH]c1=O (configuration not stated)", "inactive"),
    ("O=C(N/N=C/c1ccc(Cl)cc1Cl)c1ccc(-n2cnnn2)cc1", "inactive"),
    ("Cc1cccn2c(=O)c3cc(C(=O)NC4CCCCC4)c(=N)n(CCN4CCOCC4)c3nc12", "inactive"),
    ("COc1cc(/C(C)=N\\NC(N)=S)cc(OC)c1OC", "inactive"),
    ("COc1cc(C(=O)Nc2cc(C)c(OCC(=O)N3CCOCC3)c(C)c2)cc(OC)c1OC", "inactive"),
    ("COc1cc2c3c(c1)c(N=NC(N)=S)c(O)n3C(C)(C)C=C2C", "inactive"),
    ("O=C(CCCN1C(=O)/C(=C/c2ccccc2Cl)SC1=S)NNC(=O)c1ccc(Cl)cc1Cl", "active"),
    ("Nc1ccc(-c2cc3ccccc3oc2=O)cc1", "active"),
    ("COc1ccc(/C=C2/SC(=S)N(CCCC(=O)Nc3ccc(O)cc3)C2=O)cc1OC", "inactive"),
    ("O=[N+]([O-])c1ccc(Sc2cc[n+]([O-])c3ccccc23)c([N+](=O)[O-])c1", "active"),
    ("CC1=CC(C)(C)Nc2ccc(OC(=O)c3cccnc3)cc21", "active"),
    ("Cc1ccc(C)c(-n2nnnc2Sc2nnnn2-c2ccccc2)c1", "active"),
    ("CCC(C)[C@H](N)c1nnc(SCC(=O)c2ccc(Cl)cc2)o1 (some centres not stated)", "inactive"),
]
